experimental-target: Prostaglandin G/H synthase 1 (Ovis aries, UniProt P05979)
Sequence (P05979 whole entry): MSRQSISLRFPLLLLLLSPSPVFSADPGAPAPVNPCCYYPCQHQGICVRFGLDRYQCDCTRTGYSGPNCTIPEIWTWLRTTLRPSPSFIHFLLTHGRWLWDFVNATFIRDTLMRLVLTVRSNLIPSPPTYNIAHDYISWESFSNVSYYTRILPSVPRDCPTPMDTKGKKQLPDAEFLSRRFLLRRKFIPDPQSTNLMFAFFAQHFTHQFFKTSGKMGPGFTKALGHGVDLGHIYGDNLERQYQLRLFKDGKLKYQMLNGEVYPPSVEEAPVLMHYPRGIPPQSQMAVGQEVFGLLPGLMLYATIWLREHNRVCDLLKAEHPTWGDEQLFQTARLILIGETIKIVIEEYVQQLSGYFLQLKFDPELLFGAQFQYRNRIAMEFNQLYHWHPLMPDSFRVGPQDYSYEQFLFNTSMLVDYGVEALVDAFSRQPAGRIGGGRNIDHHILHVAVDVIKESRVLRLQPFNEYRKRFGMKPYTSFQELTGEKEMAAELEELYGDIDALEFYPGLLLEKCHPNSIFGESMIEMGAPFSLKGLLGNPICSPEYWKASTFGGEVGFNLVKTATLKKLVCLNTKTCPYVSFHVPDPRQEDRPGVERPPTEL
experiment: Inhibition of ovine COX1 preincubated for 5 mins followed by addition of arachidonic acid as substrate measured after 2 mins by enzyme immunoassay
value-type: IC50

Form entry - test system: Prostaglandin G/H synthase 1 (Ovis aries, UniProt P05979); read-out: IC50; compound: COc1ccc(C(=O)CN2C(=O)NC(c3ccccc3)(c3ccccc3)C2=O)cc1
70.5 µM

Give recorded IC50 with Prostaglandin G/H synthase 1 (Ovis aries, UniProt P05979) for the following compound: O=C(CN1C(=O)NC(c2ccccc2)(c2ccccc2)C1=O)c1ccc(F)cc1
70.5 µM

Reported IC50 for Prostaglandin G/H synthase 1 (Ovis aries, UniProt P05979), given COc1ccc(CNC(=O)CN2C(=O)NC(c3ccccc3)(c3ccccc3)C2=O)cc1 ?
> 100 µM

Give Prostaglandin G/H synthase 1 (Ovis aries, UniProt P05979) IC50 for COc1cc(CNC(=O)CN2C(=O)NC(c3ccccc3)(c3ccccc3)C2=O)cc(OC)c1OC
> 100 µM

Give the reported IC50 for O=C(CCN1C(=O)NC(c2ccccc2)(c2ccccc2)C1=O)NCc1ccc(F)cc1 (system: Prostaglandin G/H synthase 1 (Ovis aries, UniProt P05979)).
> 100 µM

API: value(readout=IC50, system=Prostaglandin G/H synthase 1 (Ovis aries, UniProt P05979)) for record O=C(CCN1C(=O)NC(c2ccccc2)(c2ccccc2)C1=O)Nc1ccc(F)cc1
> 100 µM

// fetch Prostaglandin G/H synthase 1 (Ovis aries, UniProt P05979) IC50 for NS(=O)(=O)c1ccc(NC(=O)CCN2C(=O)NC(c3ccccc3)(c3ccccc3)C2=O)cc1
> 100 µM

Param readout= IC50; system= Prostaglandin G/H synthase 1 (Ovis aries, UniProt P05979); entry= COc1ccc(CNC(=O)CCN2C(=O)NC(c3ccccc3)(c3ccccc3)C2=O)cc1 ; returns value.
> 100 µM

Give the reported IC50 for O=C(CN1C(=O)NC(c2ccccc2)(c2ccccc2)C1=O)NCc1ccc(F)cc1 (system: Prostaglandin G/H synthase 1 (Ovis aries, UniProt P05979)).
> 100 µM
